Listed here are molecules together with their documented % Enhancement in bioavailability.
EXPERIMENT: Enhancement in bioavailability of drugs by the Cuminum cyminum active molecule / fraction
MEASUREMENT_PARAMETERS: drug given with Active molecule (3′,5-dihydroxy flavone-7-O-β-D-galacturonide-4′-O-β-D-glucopyranoside)
The reply should be a number in %, with the unit left off.

Use the examples below as a reference point.
molecule=CO[C@H]1/C=C/O[C@@]2(C)Oc3c(C)c(O)c4c(O)c(c(/C=N/N5CCN(C)CC5)c(O)c4c3C2=O)NC(=O)/C(C)=C\C=C\[C@H](C)[C@H](O)[C@@H](C)[C@@H](O)[C@@H](C)[C@H](OC(C)=O)[C@@H]1C unit_text=% test_value=90
molecule="CS(=O)(=O)Nc1ccc([N+](=O)[O-])cc1Oc1ccccc1 [Nimesulide]" unit_text=% test_value=90

Proceeding to the next molecule to report its % Enhancement in bioavailability.
Input line: May I ask what % Enhancement in bioavailability has been recorded for Nc1nc2c(ncn2COCCO)c(=O)[nH]1 ?
Output line: 89

----------
EXPERIMENT: Enhancement in bioavailability of drugs by the Cuminum cyminum active molecule / fraction
MEASUREMENT_PARAMETERS: drug given with Active molecule (3′,5-dihydroxy flavone-7-O-β-D-galacturonide-4′-O-β-D-glucopyranoside)
TEST_READOUT: % Enhancement in bioavailability (%)
The reply should be a number in %, with the unit left off.

Input line: May I ask what % Enhancement in bioavailability has been recorded for Cn1c(=O)c2[nH]cnc2n(C)c1=O ?
Output line: 75

Input line: May I ask what % Enhancement in bioavailability has been recorded for CS(=O)(=O)c1ccc(C2=C(c3ccccc3)C(=O)OC2)cc1 ?
Output line: 43

Input line: May I ask what % Enhancement in bioavailability has been recorded for C[C@@H]1[C@H](O)[C@@H](C)/C=C/C=C/C=C/C=C/C=C/C=C/C=C/[C@H](O[C@@H]2O[C@H](C)[C@@H](O)[C@H](N)[C@@H]2O)C[C@@H]2O[C@](O)(C[C@@H](O)C[C@@H](O)[C@H](O)CC[C@@H](O)C[C@@H](O)CC(=O)O[C@H]1C)C[C@H](O)[C@H]2C(=O)O ?
Output line: 95
